target: DPP-4 (Mus musculus); construct: Blood sample was processed to obtain plasma; from tissue; host or cells: plasma of male ICR mice; assay: Plasma DPP-4 activity in mice after oral dosing; type: in vivo, ICR mice; details: Table 4 Test 3, mice plasma, oral 1 mg/kg, 1 h after dosing, read-out: DPP-4 Relative activity %
Sequence (P28843 37-760 limits assumed): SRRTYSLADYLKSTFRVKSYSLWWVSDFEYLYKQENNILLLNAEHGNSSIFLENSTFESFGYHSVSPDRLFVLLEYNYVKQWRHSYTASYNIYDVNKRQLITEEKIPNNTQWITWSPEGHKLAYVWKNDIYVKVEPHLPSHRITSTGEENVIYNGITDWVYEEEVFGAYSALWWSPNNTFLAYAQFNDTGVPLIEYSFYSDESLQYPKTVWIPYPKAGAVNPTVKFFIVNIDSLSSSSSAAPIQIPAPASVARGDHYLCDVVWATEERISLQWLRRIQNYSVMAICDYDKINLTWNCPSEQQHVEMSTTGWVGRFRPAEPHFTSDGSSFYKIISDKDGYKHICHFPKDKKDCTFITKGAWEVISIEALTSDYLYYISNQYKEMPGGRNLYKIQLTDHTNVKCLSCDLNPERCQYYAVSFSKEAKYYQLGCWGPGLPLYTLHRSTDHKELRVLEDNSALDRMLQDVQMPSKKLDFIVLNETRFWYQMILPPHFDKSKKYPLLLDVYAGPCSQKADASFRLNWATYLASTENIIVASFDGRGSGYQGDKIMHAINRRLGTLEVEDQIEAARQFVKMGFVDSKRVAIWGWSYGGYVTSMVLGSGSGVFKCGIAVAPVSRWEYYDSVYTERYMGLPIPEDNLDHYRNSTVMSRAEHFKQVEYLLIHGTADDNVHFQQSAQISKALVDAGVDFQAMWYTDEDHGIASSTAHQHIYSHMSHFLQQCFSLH

- Compound: "Cn1nc(-c2ccn3c4c(nc3c2)C[C@H](c2cc(F)c(F)cc2F)[C@@H](N)C4)oc1=O [Example 13]"
  activity at 1 mg/kg, %: 8.5
- Compound: "N[C@H]1Cc2c(nc3cc(-c4n[nH]c(=O)o4)ccn23)C[C@@H]1c1cc(F)c(F)cc1F [Example 12]"
  activity at 1 mg/kg, %: 7.4
- Compound: "N[C@H]1Cc2c(nc3cc(-c4nnco4)ccn23)C[C@@H]1c1cc(F)c(F)cc1F [Example 1]"
  activity at 1 mg/kg, %: 11.9
- Compound: "NC(=O)c1ccn2c3c(nc2c1)C[C@H](c1cc(F)c(F)cc1F)[C@@H](N)C3 [Refference 1, reference compound]"
  activity at 1 mg/kg, %: 17.5
